Test system: MDA-MB-435
Test: NCI tumour cell line growth inhibition, 48 h
Give TGI for every item shown.
Write down the numeric answer in µM and omit the unit.

Reported TGI, molecule COc1ccc(/C=C(\C#N)n2nnc3c(F)cccc32)cc1 : ____ 0.371

Reported TGI, molecule Cc1nc2ccc(C(F)(F)F)cc2nc1NCc1ccc(Cl)c(Cl)c1 : ____ 31.8

Reported TGI, molecule c1ccc(-c2nc(N3CCNCC3)c3oc(-c4ccccc4)nc3n2)cc1 : ____ 3.12

Reported TGI, molecule O=[N+]([O-])c1ccc(N2CCOCC2)c2c1no[n+]2[O-] : ____ 7.35

Reported TGI, molecule OC(C#Cc1ccccc1)(c1ccccc1)c1ccccc1 : ____ 56.3

Reported TGI, molecule O=c1c2cc(S(=O)(=O)O)ccc2nc(COc2ccc(Oc3ccc(Cl)cc3Cl)cc2)n1-c1ccc(Oc2ccc(Cl)cc2)cc1Cl : ____ 39.6

Reported TGI, molecule Nc1nc(Nc2ccccc2SSc2ccccc2Nc2nc(N)nc(C(Cl)(Cl)Cl)n2)nc(C(Cl)(Cl)Cl)n1 : ____ 24.9

Reported TGI, molecule CCC(=O)C(CCN1CCC2(CCCc3ccccc32)CC1)(c1ccccc1)c1ccccc1 : ____ 12.5
